inhibition for assorted compounds
biological target: Homeodomain-interacting protein kinase 1 (Homo sapiens); conditions: at 0.1 µM
measured attribute: inhibition (%)

>  <compound>
CC1=C(C(=O)Nc2cc(Cl)c3[nH]ncc3c2)C(c2ccc(C(F)(F)F)cc2)CC(=O)N1 (stereo not drawn)

>  <system tested>
Homeodomain-interacting protein kinase 1 (Homo sapiens)

>  <measured attribute>
inhibition

>  <result value>
-0.91

$$$$
>  <compound>
Cc1ccc(O)cc1Nc1ccnc2cc(-c3ccccn3)ccc12

>  <system tested>
Homeodomain-interacting protein kinase 1 (Homo sapiens)

>  <measured attribute>
inhibition

>  <result value>
1.24

$$$$
>  <compound>
CCOc1ccc2c(-c3ccnc(Nc4cccc(C(F)(F)F)c4)n3)cnn2n1

>  <system tested>
Homeodomain-interacting protein kinase 1 (Homo sapiens)

>  <measured attribute>
inhibition

>  <result value>
21.8

$$$$
>  <compound>
CC(C)(CO)CNC(=O)c1ccc2c(c1)/C(=N/Nc1ccc(S(N)(=O)=O)cc1)C(=O)N2

>  <system tested>
Homeodomain-interacting protein kinase 1 (Homo sapiens)

>  <measured attribute>
inhibition

>  <result value>
-4.78

$$$$
>  <compound>
COc1cc2ncn(-c3cc(OCc4ccccc4C(F)(F)F)c(C(=O)N(C)C)s3)c2cc1OC

>  <system tested>
Homeodomain-interacting protein kinase 1 (Homo sapiens)

>  <measured attribute>
inhibition

>  <result value>
-1.93

$$$$
>  <compound>
[O-][S+]1CCN(Cc2ccc(-c3ccc4ncnc(Nc5ccc(OCc6cccc(F)c6)c(Cl)c5)c4c3)o2)CC1

>  <system tested>
Homeodomain-interacting protein kinase 1 (Homo sapiens)

>  <measured attribute>
inhibition

>  <result value>
-2.75

$$$$
>  <compound>
c1cc(-c2cnn3nc(N4CCOCC4)ccc23)nc(NC2CC2)n1

>  <system tested>
Homeodomain-interacting protein kinase 1 (Homo sapiens)

>  <measured attribute>
inhibition

>  <result value>
3.36

$$$$
>  <compound>
Clc1ccc(-c2nn3ncccc3c2-c2ccnc(Nc3ccccc3)n2)cc1

>  <system tested>
Homeodomain-interacting protein kinase 1 (Homo sapiens)

>  <measured attribute>
inhibition

>  <result value>
1.35

$$$$
>  <compound>
COc1cc(N2CCN(C(C)C)CC2)ccc1Nc1nc(Nc2ccc(F)cc2C(N)=O)c2cc[nH]c2n1

>  <system tested>
Homeodomain-interacting protein kinase 1 (Homo sapiens)

>  <measured attribute>
inhibition

>  <result value>
33.9

$$$$
>  <compound>
CS(=O)(=O)CCNCc1ccc(-c2ccc3ncnc(Nc4ccc(OCc5ccccc5)c(C(F)(F)F)c4)c3c2)o1

>  <system tested>
Homeodomain-interacting protein kinase 1 (Homo sapiens)

>  <measured attribute>
inhibition

>  <result value>
-3.76

$$$$
>  <compound>
FC(F)(F)c1cccc(-c2nn3ncccc3c2-c2ccnc(Nc3ccc4c(c3)OCCO4)n2)c1

>  <system tested>
Homeodomain-interacting protein kinase 1 (Homo sapiens)

>  <measured attribute>
inhibition

>  <result value>
-2.65

$$$$
>  <compound>
N#Cc1c(NC(=O)CN2CCOCC2)sc2c1CCCC2

>  <system tested>
Homeodomain-interacting protein kinase 1 (Homo sapiens)

>  <measured attribute>
inhibition

>  <result value>
6.67

$$$$
>  <compound>
COC(=O)c1sc(-n2cnc3cc(OC)c(OC)cc32)cc1OCc1ccccc1C(F)(F)F

>  <system tested>
Homeodomain-interacting protein kinase 1 (Homo sapiens)

>  <measured attribute>
inhibition

>  <result value>
-2.18

$$$$
>  <compound>
NS(=O)(=O)c1ccc(N/N=C2\C(=O)Nc3ccc4ncccc4c32)cc1

>  <system tested>
Homeodomain-interacting protein kinase 1 (Homo sapiens)

>  <measured attribute>
inhibition

>  <result value>
19.7

$$$$
>  <compound>
Nc1ncc(-c2cccc(S(N)(=O)=O)c2)c2scc(-c3ccc(F)c(Cl)c3)c12

>  <system tested>
Homeodomain-interacting protein kinase 1 (Homo sapiens)

>  <measured attribute>
inhibition

>  <result value>
0.64

$$$$
>  <compound>
Cc1cccc2c1NC(=O)/C2=N\Nc1ccc(S(N)(=O)=O)cc1

>  <system tested>
Homeodomain-interacting protein kinase 1 (Homo sapiens)

>  <measured attribute>
inhibition

>  <result value>
1.24

$$$$
>  <compound>
O=C(O[C@H]1CN[C@H](C#Cc2cc3ncnc(Nc4ccc(Cc5ccccc5)cc4)c3s2)C1)N1CCOCC1

>  <system tested>
Homeodomain-interacting protein kinase 1 (Homo sapiens)

>  <measured attribute>
inhibition

>  <result value>
-2.13

$$$$
>  <compound>
CS(=O)(=O)CCNCc1coc(-c2ccc3ncnc(Nc4ccc(OCc5ccccc5)cc4)c3c2)c1

>  <system tested>
Homeodomain-interacting protein kinase 1 (Homo sapiens)

>  <measured attribute>
inhibition

>  <result value>
-1.59

$$$$
>  <compound>
CNC(=O)c1cc(-c2ccc(F)cc2)cc(-c2ccc(S(=O)(=O)N3CCCC3)cc2)c1N

>  <system tested>
Homeodomain-interacting protein kinase 1 (Homo sapiens)

>  <measured attribute>
inhibition

>  <result value>
-2.69

$$$$
>  <compound>
O=S(=O)(CCNCc1ccc(-c2ccc3ncnc(Nc4ccc(OCc5cccc(F)c5)c(Cl)c4)c3c2)o1)c1ccccc1

>  <system tested>
Homeodomain-interacting protein kinase 1 (Homo sapiens)

>  <measured attribute>
inhibition

>  <result value>
0.47

$$$$
>  <compound>
Nc1nc(-c2cccc(Cl)c2)c(-c2ccc3ncccc3n2)s1

>  <system tested>
Homeodomain-interacting protein kinase 1 (Homo sapiens)

>  <measured attribute>
inhibition

>  <result value>
2.34

$$$$
>  <compound>
CCCN1CCC(c2ccc(Nc3nc(Nc4cc(F)ccc4C(N)=O)c4cc[nH]c4n3)c(OC)c2)CC1

>  <system tested>
Homeodomain-interacting protein kinase 1 (Homo sapiens)

>  <measured attribute>
inhibition

>  <result value>
49.2

$$$$
>  <compound>
CC(C)COC(=O)c1ccc2c(c1)/C(=C/Nc1ccc(S(N)(=O)=O)cc1)C(=O)N2

>  <system tested>
Homeodomain-interacting protein kinase 1 (Homo sapiens)

>  <measured attribute>
inhibition

>  <result value>
-0.11

$$$$
>  <compound>
COc1cc(/C=N/Nc2ncnc3[nH]ncc23)ccc1O

>  <system tested>
Homeodomain-interacting protein kinase 1 (Homo sapiens)

>  <measured attribute>
inhibition

>  <result value>
9.37

$$$$
>  <compound>
COc1cc2c(cc1Nc1nc(Nc3ccsc3C(N)=O)c3cc[nH]c3n1)N(C(=O)CN(C)C)CCC2(C)C

>  <system tested>
Homeodomain-interacting protein kinase 1 (Homo sapiens)

>  <measured attribute>
inhibition

>  <result value>
0.05

$$$$
>  <compound>
O=C(Nc1n[nH]c2cc(-c3ccc(F)cc3)ccc12)C1CC1

>  <system tested>
Homeodomain-interacting protein kinase 1 (Homo sapiens)

>  <measured attribute>
inhibition

>  <result value>
-2.89

$$$$
>  <compound>
CCc1nn2ncccc2c1-c1ccnc(NC2CC2)n1

>  <system tested>
Homeodomain-interacting protein kinase 1 (Homo sapiens)

>  <measured attribute>
inhibition

>  <result value>
-1.75

$$$$
>  <compound>
COc1cccc(-n2ncc3c(N/N=C/c4ccc(F)cc4)ncnc32)c1

>  <system tested>
Homeodomain-interacting protein kinase 1 (Homo sapiens)

>  <measured attribute>
inhibition

>  <result value>
11.9

$$$$
>  <compound>
COc1ccc(-c2nn3ncccc3c2-c2ccnc(Nc3ccc4c(c3)OCCO4)n2)cc1

>  <system tested>
Homeodomain-interacting protein kinase 1 (Homo sapiens)

>  <measured attribute>
inhibition

>  <result value>
-7.34

$$$$
>  <compound>
N#Cc1c(NC(=O)c2ccc(F)cc2)sc2c1CCCC2

>  <system tested>
Homeodomain-interacting protein kinase 1 (Homo sapiens)

>  <measured attribute>
inhibition

>  <result value>
-1.95

$$$$
>  <compound>
CCCN(CCS(C)(=O)=O)Cc1ccc(-c2ccc3ncnc(Nc4ccc(OCc5cccc(F)c5)c(Cl)c4)c3c2)o1

>  <system tested>
Homeodomain-interacting protein kinase 1 (Homo sapiens)

>  <measured attribute>
inhibition

>  <result value>
6.46

$$$$
>  <compound>
CCNC(=O)O[C@H]1CN[C@H](C#Cc2cc3ncnc(Nc4ccc(OCc5cccc(F)c5)c(Cl)c4)c3s2)C1

>  <system tested>
Homeodomain-interacting protein kinase 1 (Homo sapiens)

>  <measured attribute>
inhibition

>  <result value>
2.47

$$$$
>  <compound>
Nc1nc(-c2ccc(F)cc2)c(-c2ccc3ncccc3n2)s1

>  <system tested>
Homeodomain-interacting protein kinase 1 (Homo sapiens)

>  <measured attribute>
inhibition

>  <result value>
4.79

$$$$
>  <compound>
CN(C)CCOc1ccc(-c2nc(-c3ccncc3)c(-c3ccc4c(c3)CC/C4=N\O)[nH]2)cc1

>  <system tested>
Homeodomain-interacting protein kinase 1 (Homo sapiens)

>  <measured attribute>
inhibition

>  <result value>
6

$$$$
>  <compound>
COc1ccc(-c2oc3ncnc(N)c3c2-c2ccc(NC(=O)Nc3cc(C(F)(F)F)ccc3F)cc2)cc1

>  <system tested>
Homeodomain-interacting protein kinase 1 (Homo sapiens)

>  <measured attribute>
inhibition

>  <result value>
13.5

$$$$
>  <compound>
COC(=O)Nc1nc2ccc(Oc3ccc(NC(=O)Nc4cccc(Cl)c4)cc3)cc2[nH]1

>  <system tested>
Homeodomain-interacting protein kinase 1 (Homo sapiens)

>  <measured attribute>
inhibition

>  <result value>
-1.97

$$$$
>  <compound>
COc1cc(Nc2nccc(Nc3ccc4c(C)n[nH]c4c3)n2)cc(OC)c1OC

>  <system tested>
Homeodomain-interacting protein kinase 1 (Homo sapiens)

>  <measured attribute>
inhibition

>  <result value>
-0.29

$$$$
>  <compound>
CCN1CCC(CC(=O)Nc2n[nH]c3nnc(-c4cccc(F)c4F)cc23)CC1

>  <system tested>
Homeodomain-interacting protein kinase 1 (Homo sapiens);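 also: each value is a mean percent inhibition of HIPK1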

>  <measured attribute>
inhibition

>  <result value>
-3.8

$$$$

Source of measurements: ChEMBL document CHEMBL1961873
